Listed here: items and their measured stoichiometry N.
testTarget: the molecule itself
testName: cross-linking

protein	stoichiometry N
gorilla APOBEC3C S188I (enzyme) MNPQIRNPMKAMYPGTFYFQFKNLWEANDRNETWLCFTVEGIKRRSVVSWKTGVFRNQVDSETHCHAERCFLSWFCDDILSPNTNYQVTWYTSWSPCPECAGEVAEFLARHSNVKLTIFTARLYYFQYPCYQVGLRSLSQEGVAVEIMDYEDFKYCWENFVYNDNEPFKPWKGLKTNFRLLKRRLREILQ	2
human APOBEC3C S188I/N115K (enzyme) MNPQIRNPMKAMYPGTFYFQFKNLWEANDRNETWLCFTVEGIKRRSVVSWKTGVFRNQVDSETHCHAERCFLSWFCDDILSPNTKYQVTWYTSWSPCPDCAGEVAEFLARHSNVKLTIFTARLYYFQYPCYQEGLRSLSQEGVAVEIMDYEDFKYCWENFVYNDNEPFKPWKGLKTNFRLLKRRLREILQ	2
gorilla APOBEC3C (enzyme) MNPQIRNPMKAMYPGTFYFQFKNLWEANDRNETWLCFTVEGIKRRSVVSWKTGVFRNQVDSETHCHAERCFLSWFCDDILSPNTNYQVTWYTSWSPCPECAGEVAEFLARHSNVKLTIFTARLYYFQYPCYQVGLRSLSQEGVAVEIMDYEDFKYCWENFVYNDNEPFKPWKGLKTNFRLLKRRLRESLQ	2
